- Experimental System: T1, human MSLN-FL-his protein (human, UniProt Q13421 296-580)
- T1 construct: made in HEK293E cells, purified on nickel column; also called hMSLN-FL-his; human MSLN full-length protein; not shown: His tag
- T1 sequence (Q13421 other isoform, or with tags, fused parts or gaps): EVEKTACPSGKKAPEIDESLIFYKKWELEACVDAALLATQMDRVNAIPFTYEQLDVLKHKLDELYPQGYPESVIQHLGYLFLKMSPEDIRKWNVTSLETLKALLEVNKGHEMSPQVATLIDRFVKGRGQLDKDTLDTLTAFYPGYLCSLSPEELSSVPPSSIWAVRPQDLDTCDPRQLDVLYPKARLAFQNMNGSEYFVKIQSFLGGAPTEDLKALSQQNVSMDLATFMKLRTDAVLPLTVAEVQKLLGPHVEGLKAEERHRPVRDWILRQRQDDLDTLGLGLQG
- Measurement Description: competitive ELISA; row Tab142 (R1); further: test concentration or dose not given here
Task for the reader: assign each of the following binders its reported competition rate.
// note: answer is a bare numeric in %

q: Consider the binder S009-F2.47.1 (antibody, human IgG1, kappa, V domains shown, human-murine chimeric antibody, human IgG1/kappa constant regions) VH: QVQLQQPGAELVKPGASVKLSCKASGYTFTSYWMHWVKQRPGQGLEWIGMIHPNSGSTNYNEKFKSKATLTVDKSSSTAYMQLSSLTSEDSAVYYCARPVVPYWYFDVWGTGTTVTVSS VL: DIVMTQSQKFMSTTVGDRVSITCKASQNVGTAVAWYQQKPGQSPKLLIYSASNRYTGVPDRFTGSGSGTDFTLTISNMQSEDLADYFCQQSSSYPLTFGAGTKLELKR and give its measured competition rate.
a: 82

q: For S009-F2.58.8 (antibody, human IgG1, kappa, V domains shown, human-murine chimeric antibody, human IgG1/kappa constant regions) VH: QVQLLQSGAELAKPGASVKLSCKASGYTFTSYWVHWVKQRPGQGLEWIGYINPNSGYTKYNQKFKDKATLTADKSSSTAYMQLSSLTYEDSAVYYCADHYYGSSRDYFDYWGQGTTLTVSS VL: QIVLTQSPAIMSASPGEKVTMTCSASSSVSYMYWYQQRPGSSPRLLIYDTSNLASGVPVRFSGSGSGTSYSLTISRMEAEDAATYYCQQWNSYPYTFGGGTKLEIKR then?
a: 46

q: For S009-F2.23.12 (antibody, human IgG1, kappa, V domains shown, human-murine chimeric antibody, human IgG1/kappa constant regions) VH: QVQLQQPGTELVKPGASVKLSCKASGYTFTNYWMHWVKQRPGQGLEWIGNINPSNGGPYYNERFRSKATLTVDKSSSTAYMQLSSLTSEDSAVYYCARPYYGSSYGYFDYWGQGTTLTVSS VL: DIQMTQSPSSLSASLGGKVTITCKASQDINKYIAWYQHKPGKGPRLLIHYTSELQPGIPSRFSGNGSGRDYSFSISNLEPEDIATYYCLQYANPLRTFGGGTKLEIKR then?
a: 23

q: For S009-F2.13.3 (antibody, human IgG1, kappa, V domains shown, human-murine chimeric antibody, human IgG1/kappa constant regions) VH: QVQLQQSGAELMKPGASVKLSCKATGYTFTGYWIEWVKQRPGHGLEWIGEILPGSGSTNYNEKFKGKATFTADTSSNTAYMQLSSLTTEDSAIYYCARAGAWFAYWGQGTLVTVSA VL: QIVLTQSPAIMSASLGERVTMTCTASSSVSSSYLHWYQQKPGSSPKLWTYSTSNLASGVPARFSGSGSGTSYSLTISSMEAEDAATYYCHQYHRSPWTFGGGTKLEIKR then?
a: -33

q: For S009-F1.2.12 (antibody, human IgG1, kappa, V domains shown, human-murine chimeric antibody, human IgG1/kappa constant regions) VH: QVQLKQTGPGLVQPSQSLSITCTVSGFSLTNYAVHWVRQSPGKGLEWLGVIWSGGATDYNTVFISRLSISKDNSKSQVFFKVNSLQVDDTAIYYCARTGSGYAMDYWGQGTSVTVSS VL: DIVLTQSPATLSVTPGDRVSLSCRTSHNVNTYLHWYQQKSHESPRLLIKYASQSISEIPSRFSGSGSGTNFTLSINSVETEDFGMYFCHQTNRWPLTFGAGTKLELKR then?
a: -5
